Data provenance is patent US20130303535A1.

Target: TTX resistant Na channel of human SNS-expressing cell (SNS) (Homo sapiens, UniProt Q9Y5Y9)
Sequence (Q9Y5Y9 whole entry, looked up): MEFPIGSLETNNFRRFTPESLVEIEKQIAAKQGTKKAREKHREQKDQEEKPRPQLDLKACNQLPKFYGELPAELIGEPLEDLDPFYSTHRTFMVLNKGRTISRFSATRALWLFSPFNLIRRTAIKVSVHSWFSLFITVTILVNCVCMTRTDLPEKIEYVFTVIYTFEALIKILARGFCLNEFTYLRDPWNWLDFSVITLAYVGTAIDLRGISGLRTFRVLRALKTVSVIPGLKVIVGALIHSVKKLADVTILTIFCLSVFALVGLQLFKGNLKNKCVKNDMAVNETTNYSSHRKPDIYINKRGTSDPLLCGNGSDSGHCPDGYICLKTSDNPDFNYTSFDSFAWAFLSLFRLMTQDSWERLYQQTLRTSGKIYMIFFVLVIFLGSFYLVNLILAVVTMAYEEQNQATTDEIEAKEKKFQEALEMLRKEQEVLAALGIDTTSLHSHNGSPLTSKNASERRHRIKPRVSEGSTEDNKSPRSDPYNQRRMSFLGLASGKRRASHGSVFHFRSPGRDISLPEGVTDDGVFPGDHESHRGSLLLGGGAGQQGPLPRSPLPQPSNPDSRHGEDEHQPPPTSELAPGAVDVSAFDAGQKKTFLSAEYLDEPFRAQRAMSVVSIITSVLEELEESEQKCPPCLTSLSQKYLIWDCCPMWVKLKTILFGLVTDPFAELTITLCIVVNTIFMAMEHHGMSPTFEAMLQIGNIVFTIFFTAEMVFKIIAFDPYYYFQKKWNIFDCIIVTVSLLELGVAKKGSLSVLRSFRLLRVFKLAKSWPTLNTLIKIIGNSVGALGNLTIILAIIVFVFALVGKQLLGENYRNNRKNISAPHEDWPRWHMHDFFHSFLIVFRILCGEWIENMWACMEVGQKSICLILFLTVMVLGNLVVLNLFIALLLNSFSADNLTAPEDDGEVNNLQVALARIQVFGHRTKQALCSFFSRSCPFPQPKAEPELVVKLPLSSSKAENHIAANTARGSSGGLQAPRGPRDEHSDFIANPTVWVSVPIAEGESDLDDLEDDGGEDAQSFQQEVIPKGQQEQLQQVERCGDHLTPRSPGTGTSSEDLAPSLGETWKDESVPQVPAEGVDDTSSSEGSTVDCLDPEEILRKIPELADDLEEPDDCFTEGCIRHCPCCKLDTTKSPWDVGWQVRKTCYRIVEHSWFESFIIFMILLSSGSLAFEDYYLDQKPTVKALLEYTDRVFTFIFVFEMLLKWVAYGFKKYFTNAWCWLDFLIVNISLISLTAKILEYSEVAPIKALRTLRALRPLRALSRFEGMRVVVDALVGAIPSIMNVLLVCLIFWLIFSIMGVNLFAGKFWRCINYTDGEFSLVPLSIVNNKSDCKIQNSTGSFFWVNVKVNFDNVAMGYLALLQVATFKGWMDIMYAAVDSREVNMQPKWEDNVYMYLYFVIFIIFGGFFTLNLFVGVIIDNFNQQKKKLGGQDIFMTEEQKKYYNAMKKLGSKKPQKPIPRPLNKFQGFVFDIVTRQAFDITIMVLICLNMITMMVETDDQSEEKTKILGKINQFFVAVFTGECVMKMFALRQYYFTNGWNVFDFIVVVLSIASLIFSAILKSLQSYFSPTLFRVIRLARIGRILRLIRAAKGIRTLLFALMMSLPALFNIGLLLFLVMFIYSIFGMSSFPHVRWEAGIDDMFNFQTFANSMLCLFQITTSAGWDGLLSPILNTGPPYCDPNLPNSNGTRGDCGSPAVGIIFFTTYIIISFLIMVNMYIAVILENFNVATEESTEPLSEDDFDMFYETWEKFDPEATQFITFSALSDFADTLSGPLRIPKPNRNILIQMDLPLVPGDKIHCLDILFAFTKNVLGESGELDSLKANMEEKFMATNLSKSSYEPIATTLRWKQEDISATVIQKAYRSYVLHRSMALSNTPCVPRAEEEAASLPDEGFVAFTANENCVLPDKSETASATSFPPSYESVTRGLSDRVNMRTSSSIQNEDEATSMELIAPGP
Assay: cell-based
Conditions: CHO-K1, compound concentration 12.5 μM; read-out: SNS inhibitory rate (%)
Classify as follows. Reported inhibition at 12.5 µM greater than or equal to 90%: met. Reported inhibition at 12.5 µM below: not met.

{"SMILES NOTATION": "CCOCCn1c(CNC(C)(C)C(N)=O)nc2ccc(Oc3ccccc3)cc21", "ANSWER LABEL": "not met"}
{"SMILES NOTATION": "CCOCCn1c(CNCC(N)=O)nc2ccc(Oc3ccccc3)nc21", "ANSWER LABEL": "not met"}
{"SMILES NOTATION": "CC(C)OCCn1c(CN[C@@H](C)C(N)=O)nc2ccc(Oc3ccc(F)cc3)cc21", "ANSWER LABEL": "met"}
{"SMILES NOTATION": "CC(=O)N1CCC(n2c(CN[C@@H](C)C(N)=O)nc3ccc(Oc4ccc(F)cc4)cc32)CC1", "ANSWER LABEL": "not met"}
{"SMILES NOTATION": "CC(C)(NCc1nc2ccc(Oc3ccc(F)cc3)cc2n1C1CC1)C(N)=O", "ANSWER LABEL": "not met"}
{"SMILES NOTATION": "CCOCCn1c(CNCC(N)=O)nc2ccc(Oc3ccc(F)cc3)cc21", "ANSWER LABEL": "not met"}

====

Target: TTX resistant Na channel of human SNS-expressing cell (SNS) (Homo sapiens)
Assay: cell-based
Details: CHO-K1, compound concentration 12.5 μM; read-out: SNS inhibitory rate (%)
The following compounds are shown together with reported inhibition at 12.5 µM values.

{"COMPOUND": "CCOCCn1c(CN[C@@H](C)C(N)=O)nc2cc(Cl)c(-c3ccc(OC(F)(F)F)cc3)cc21 [Example 181]", "inhibition at 12.5 µM [%]": 0}
{"COMPOUND": "CCOCCn1c(CNCC(N)=O)nc2ccc(-c3ccccc3Cl)cc21 [Example 70]", "inhibition at 12.5 µM [%]": 11.2}
{"COMPOUND": "CCOCCn1c(CN[C@@H](C)C(N)=O)nc2ccc(Oc3ccc(F)cc3Cl)cc21 [Example 93]", "inhibition at 12.5 µM [%]": 82.1}
{"COMPOUND": "CCOCCn1c(CN[C@@H](C)C(N)=O)nc2ccc(-c3ccc(F)c(C)c3)cc21 [Example 167]", "inhibition at 12.5 µM [%]": 82.8}
{"COMPOUND": "CCOCCn1c(CNC(C)(C)C(N)=O)nc2ccc(Oc3ccc(F)c(F)c3)cc21 [Example 141]", "inhibition at 12.5 µM [%]": 90.3}
{"COMPOUND": "CCOCCn1c(CN[C@@H](C)C(=O)NCC(C)(C)O)nc2ccc(Oc3ccc(F)cc3)cc21 [Example 87]", "inhibition at 12.5 µM [%]": 90.1}
{"COMPOUND": "CC(C)n1c(CN[C@@H](C)C(N)=O)nc2ccc(Oc3ccccc3)cc21 [Example 9]", "inhibition at 12.5 µM [%]": 28.9}
{"COMPOUND": "CCOCCn1c(CN[C@@H](C)C(N)=O)nc2ccc(Oc3ccc(OC)cc3)cc21 [Example 75]", "inhibition at 12.5 µM [%]": 0}
{"COMPOUND": "NC(=O)CNCc1nc2ccc(Oc3ccccc3)cc2n1CC1CCOCC1 [Example 14]", "inhibition at 12.5 µM [%]": 16.4}
{"COMPOUND": "CCOCCn1c(CN[C@@H](C)C(N)=O)nc2cc(F)c(-c3ccc(F)cc3)cc21 [Example 109]", "inhibition at 12.5 µM [%]": 89.3}
{"COMPOUND": "CCOCCn1c(CN[C@@H](C)C(N)=O)nc2ccc(Oc3ccc(CC)cc3)cc21 [Example 102]", "inhibition at 12.5 µM [%]": 96.3}
{"COMPOUND": "CCn1c(CN[C@@H](C)C(N)=O)nc2ccc(Oc3ccc(F)cc3F)cc21 [Example 98]", "inhibition at 12.5 µM [%]": 69.8}
{"COMPOUND": "COCCCn1c(CN[C@@H](C)C(N)=O)nc2ccc(Oc3ccc(F)c(F)c3)cc21 [Example 122]", "inhibition at 12.5 µM [%]": 100}
{"COMPOUND": "C[C@H](NCc1nc2ccc(Oc3ccc(OC(F)(F)F)cc3)cc2n1CCCO)C(N)=O [Example 133]", "inhibition at 12.5 µM [%]": 91.7}
{"COMPOUND": "CCOCCn1c(CN[C@@H](C)C(N)=O)nc2cc(F)c(Oc3ccc(F)cc3)cc21 [Example 81]", "inhibition at 12.5 µM [%]": 69.1}
{"COMPOUND": "C[C@H](NCc1nc2ccc(Oc3ccccc3)cc2n1C1CCC1)C(N)=O [Example 11]", "inhibition at 12.5 µM [%]": 63}
{"COMPOUND": "C[C@H](NCc1nc2ccc(Oc3ccc(F)cc3)cc2n1C1CCC1)C(N)=O [Example 17]", "inhibition at 12.5 µM [%]": 89.3}

====

Target: TTX resistant Na channel of human SNS-expressing cell (SNS) (Homo sapiens, UniProt Q9Y5Y9)
Test: cell-based
Settings: CHO-K1, compound concentration 12.5 μM; read-out: SNS inhibitory rate (%)
# Lookup of reported inhibition at 12.5 µM keyed by entry

{"SMILES NOTATION": "CCOCCn1c(CNC(C)(C)C(N)=O)nc2ccc(-c3ccc(F)cc3C)cc21", "TESTED TARGET": "TTX resistant Na channel of human SNS-expressing cell (SNS) (Homo sapiens, UniProt Q9Y5Y9)", "inhibition at 12.5 µM (%)": 86.1}
{"SMILES NOTATION": "CCOCCn1c(CN[C@@H](C)C(N)=O)nc2ccc(Oc3ccc(F)cc3)cc21", "TESTED TARGET": "TTX resistant Na channel of human SNS-expressing cell (SNS) (Homo sapiens, UniProt Q9Y5Y9)", "inhibition at 12.5 µM (%)": 54.8}
{"SMILES NOTATION": "NC(=O)[C@@H]1CCCN1Cc1nc2ccc(Oc3ccccc3)cc2n1C[C@@H]1CCCO1", "TESTED TARGET": "TTX resistant Na channel of human SNS-expressing cell (SNS) (Homo sapiens, UniProt Q9Y5Y9)", "inhibition at 12.5 µM (%)": 100}
{"SMILES NOTATION": "C[C@H](NCc1nc2ccc(Oc3ccc(OC(F)(F)F)cc3)cc2n1C[C@@H]1CCCO1)C(N)=O", "TESTED TARGET": "TTX resistant Na channel of human SNS-expressing cell (SNS) (Homo sapiens, UniProt Q9Y5Y9)", "inhibition at 12.5 µM (%)": 92.4}
{"SMILES NOTATION": "CCOCCn1c(CN[C@@H](C)C(N)=O)nc2ccc(Oc3cc(F)c(F)c(F)c3)cc21", "TESTED TARGET": "TTX resistant Na channel of human SNS-expressing cell (SNS) (Homo sapiens, UniProt Q9Y5Y9)", "inhibition at 12.5 µM (%)": 84.9}
{"SMILES NOTATION": "CCOCCn1c(CN[C@@H](C)C(N)=O)nc2ccc(Oc3ccc4c(c3)CCC4)cc21", "TESTED TARGET": "TTX resistant Na channel of human SNS-expressing cell (SNS) (Homo sapiens, UniProt Q9Y5Y9)", "inhibition at 12.5 µM (%)": 26.8}
{"SMILES NOTATION": "CCOCCn1c(CN[C@@H](C)C(N)=O)nc2ccc(-c3ccc(C(F)(F)F)cc3)cc21", "TESTED TARGET": "TTX resistant Na channel of human SNS-expressing cell (SNS) (Homo sapiens, UniProt Q9Y5Y9)", "inhibition at 12.5 µM (%)": 19.7}
{"SMILES NOTATION": "CCOCCCn1c(CN[C@@H](C)C(N)=O)nc2ccc(Oc3ccc(F)cc3)cc21", "TESTED TARGET": "TTX resistant Na channel of human SNS-expressing cell (SNS) (Homo sapiens, UniProt Q9Y5Y9)", "inhibition at 12.5 µM (%)": 86.6}
{"SMILES NOTATION": "CCOCCn1c(CN[C@@H](C)C(N)=O)nc2cc(Cl)c(-c3ccc(C)cc3)cc21", "TESTED TARGET": "TTX resistant Na channel of human SNS-expressing cell (SNS) (Homo sapiens, UniProt Q9Y5Y9)", "inhibition at 12.5 µM (%)": 16}
{"SMILES NOTATION": "CCOCCn1c(CN[C@@H](C)C(N)=O)nc2ccc(-c3cccc(F)c3F)cc21", "TESTED TARGET": "TTX resistant Na channel of human SNS-expressing cell (SNS) (Homo sapiens, UniProt Q9Y5Y9)", "inhibition at 12.5 µM (%)": 38.3}
{"SMILES NOTATION": "NC(=O)CNCc1nc2ccc(Oc3ccccc3)cc2n1C1CCCC1", "TESTED TARGET": "TTX resistant Na channel of human SNS-expressing cell (SNS) (Homo sapiens, UniProt Q9Y5Y9)", "inhibition at 12.5 µM (%)": 0}
{"SMILES NOTATION": "CCn1c(CNC(C)(C)C(N)=O)nc2ccc(Oc3ccc(C)cc3)cc21", "TESTED TARGET": "TTX resistant Na channel of human SNS-expressing cell (SNS) (Homo sapiens, UniProt Q9Y5Y9)", "inhibition at 12.5 µM (%)": 57.8}
{"SMILES NOTATION": "CC(C)OCCn1c(CNCC(N)=O)nc2ccc(Oc3ccc(F)cc3)cc21", "TESTED TARGET": "TTX resistant Na channel of human SNS-expressing cell (SNS) (Homo sapiens, UniProt Q9Y5Y9)", "inhibition at 12.5 µM (%)": 26.1}
{"SMILES NOTATION": "CCOCCn1c(CN[C@@H](C)C(N)=O)nc2ccc(-c3ccccc3Cl)cc21", "TESTED TARGET": "TTX resistant Na channel of human SNS-expressing cell (SNS) (Homo sapiens, UniProt Q9Y5Y9)", "inhibition at 12.5 µM (%)": 73.7}
{"SMILES NOTATION": "C[C@@H](NCc1nc2ccc(Oc3ccccc3)cc2n1C1CCC1)C(N)=O", "TESTED TARGET": "TTX resistant Na channel of human SNS-expressing cell (SNS) (Homo sapiens, UniProt Q9Y5Y9)", "inhibition at 12.5 µM (%)": 6.7}
{"SMILES NOTATION": "CCOCCn1c(CN[C@@H](C)C(N)=O)nc2ccc(-c3ccc(Cl)cc3)cc21", "TESTED TARGET": "TTX resistant Na channel of human SNS-expressing cell (SNS) (Homo sapiens, UniProt Q9Y5Y9)", "inhibition at 12.5 µM (%)": 8}
{"SMILES NOTATION": "CCOCCn1c(CN[C@@H](C)C(N)=O)nc2ccc(Oc3ccccc3)nc21", "TESTED TARGET": "TTX resistant Na channel of human SNS-expressing cell (SNS) (Homo sapiens, UniProt Q9Y5Y9)", "inhibition at 12.5 µM (%)": 3.5}
